- Test system: Yap1 mRNA
- Test Details: Antisense inhibition of human Yap1 in A-431 cells by cEt gapmers, single dose (Example 3, RTS36584)
- Type: cell-based
- Details: Table 11; A-431 cells, 5,000 cells per well, free uptake, 2,000 nM oligonucleotide, approx. 48 hours; primer probe set RTS36584; Yap1 mRNA normalized to RIBOGREEN, percent of untreated control
Strand notation (5' to 3'): a small letter for the sugar, then the base; units joined by * are phosphorothioate-linked, units joined directly phosphodiester-linked; [ ] holds rarer units or linkages, { } end groups; capitals alone tell only the bases. k = constrained ethyl (cEt); [5mC] = 5-methylcytosine; d = 2'-deoxy (DNA)
Measured Attribute: YAP1 (% UTC)

| Substance | Measured Attribute | Unit Abbreviation | Numeric Readout |
| --- | --- | --- | --- |
| 958723 (antisense kA*kA*k[5mC]*d[5mC]*d[5mC]*dA*d[5mC]*dT*dA*dA*dA*dA*d[5mC]*k[5mC]*kG*kG) [Compound 958723] | YAP1 (% UTC) | % UTC | 63 |
| 958638 (antisense kG*kT*kG*d[5mC]*dG*dG*dA*dG*d[5mC]*dG*d[5mC]*dG*d[5mC]*kG*kG*kA) [Compound 958638] | YAP1 (% UTC) | % UTC | 127 |
| 958788 (antisense k[5mC]*kT*kG*dG*dG*d[5mC]*dA*dA*dA*dG*dT*dT*d[5mC]*k[5mC]*kT*k[5mC]) [Compound 958788] | YAP1 (% UTC) | % UTC | 54 |
| 958658 (kA*k[5mC]*kA*dG*dT*dA*dT*dA*dA*dT*dA*dT*d[5mC]*k[5mC]*kT*kA; antisense) [Compound 958658] | YAP1 (% UTC) | % UTC | 6 |

----------
- Tested on: Yap1 mRNA
- Test Details: Antisense inhibition of human Yap1 in A-431 cells by cEt gapmers, single dose (Example 4, RTS4814)
- Assay type: cell-based
- Details: Table 17; A-431 cells, 5,000 cells per well, free uptake, 2,000 nM, approximately 48 hours; RTS4814; normalized to RIBOGREEN; Yap1 mRNA relative to untreated control cells
Strand notation (5' to 3'): a small letter for the sugar, then the base; units joined by * are phosphorothioate-linked, units joined directly phosphodiester-linked; [ ] holds rarer units or linkages, { } end groups; capitals alone tell only the bases. k = constrained ethyl (cEt); [5mC] = 5-methylcytosine; d = 2'-deoxy (DNA)
So basically: YAP1 (% UTC) at 40 % UTC or higher? That is Y. Lower than 40 % UTC? That is N.

| Substance | Discrete Label |
| --- | --- |
| 1075843 (k[5mC]*kA*kT*dG*dA*dA*dA*dT*dG*dA*dT*dG*dG*kA*kA*k[5mC]; antisense) [Compound 1075843] | Y |
| 1076003 (kA*kA*kT*dT*dT*dA*dA*dT*dG*dG*d[5mC]*dT*dT*kG*k[5mC]*kA; antisense) [Compound 1076003] | N |
| 1075395 (kA*kT*kG*dA*dA*dT*dA*dA*dG*dT*dA*dT*dG*k[5mC]*k[5mC]*kA; antisense) [Compound 1075395] | N |
| 1075011 (antisense kG*k[5mC]*kA*d[5mC]*dA*dA*dT*dA*dA*dT*d[5mC]*dG*dA*kA*k[5mC]*kA) [Compound 1075011] | Y |
| 1075331 (kG*kA*kT*dA*dA*dA*d[5mC]*dA*d[5mC]*dT*dG*d[5mC]*dA*kG*kA*kG; antisense) [Compound 1075331] | N |
| 1075683 (k[5mC]*kT*kG*dA*dA*dA*dA*dA*dG*dT*dT*dA*dT*kG*k[5mC]*k[5mC]; antisense) [Compound 1075683] | Y |
| 1074467 (k[5mC]*kA*k[5mC]*d[5mC]*dG*dA*d[5mC]*d[5mC]*d[5mC]*dT*dG*d[5mC]*d[5mC]*kA*kA*kA; antisense) [Compound 1074467] | N |
| 1075971 (kT*kA*kT*dT*dA*dA*d[5mC]*dA*dT*dA*d[5mC]*d[5mC]*dT*k[5mC]*kA*kT; antisense) [Compound 1075971] | N |
| 1076323 (k[5mC]*kA*kA*dT*dT*dT*dA*d[5mC]*dA*dA*dG*dT*dG*kA*kG*k[5mC]; antisense) [Compound 1076323] | N |
| 1076259 (kA*kT*kT*dT*dA*dA*d[5mC]*dT*d[5mC]*d[5mC]*dT*dG*dA*kA*kG*kT; antisense) [Compound 1076259] | Y |
| 1075203 (antisense kT*kA*kA*dT*dT*dA*dT*dA*dT*dA*dA*dG*dG*k[5mC]*kT*kG) [Compound 1075203] | Y |
